- target_of_assay: ScIleRS (Saccharomyces cerevisiae, UniProt P09436)
- Sequence (P09436 1-1072): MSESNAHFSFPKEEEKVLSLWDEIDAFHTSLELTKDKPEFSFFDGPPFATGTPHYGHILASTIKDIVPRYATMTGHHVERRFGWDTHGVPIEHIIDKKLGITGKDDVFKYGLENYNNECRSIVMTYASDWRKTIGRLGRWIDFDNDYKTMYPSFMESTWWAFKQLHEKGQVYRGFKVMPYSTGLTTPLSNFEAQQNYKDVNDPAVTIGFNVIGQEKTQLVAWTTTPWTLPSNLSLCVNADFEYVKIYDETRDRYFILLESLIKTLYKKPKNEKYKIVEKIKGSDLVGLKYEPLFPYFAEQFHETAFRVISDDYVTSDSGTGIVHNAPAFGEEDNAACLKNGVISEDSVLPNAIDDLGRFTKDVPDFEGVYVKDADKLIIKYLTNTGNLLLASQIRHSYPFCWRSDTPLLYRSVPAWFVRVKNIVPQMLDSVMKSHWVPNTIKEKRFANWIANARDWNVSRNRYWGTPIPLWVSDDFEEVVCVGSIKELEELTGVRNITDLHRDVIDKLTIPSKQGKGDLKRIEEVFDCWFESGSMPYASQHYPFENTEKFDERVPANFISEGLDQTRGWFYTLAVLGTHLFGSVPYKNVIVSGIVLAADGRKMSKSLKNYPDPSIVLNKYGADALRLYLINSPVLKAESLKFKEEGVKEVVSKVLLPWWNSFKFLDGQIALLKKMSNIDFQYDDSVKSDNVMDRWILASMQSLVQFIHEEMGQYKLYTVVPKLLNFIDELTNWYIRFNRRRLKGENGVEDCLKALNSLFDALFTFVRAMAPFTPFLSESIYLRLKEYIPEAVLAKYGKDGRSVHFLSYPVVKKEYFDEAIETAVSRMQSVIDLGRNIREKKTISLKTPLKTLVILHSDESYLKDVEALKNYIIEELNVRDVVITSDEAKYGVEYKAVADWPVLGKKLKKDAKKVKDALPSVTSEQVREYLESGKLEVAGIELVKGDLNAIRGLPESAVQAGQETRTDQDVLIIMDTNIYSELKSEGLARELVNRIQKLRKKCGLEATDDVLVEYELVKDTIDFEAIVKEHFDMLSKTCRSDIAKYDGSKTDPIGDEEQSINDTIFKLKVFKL
measure_name: Ki (µM)
Give your result in µM as a bare value.

Value wanted: Ki (ScIleRS (Saccharomyces cerevisiae, UniProt P09436)) of entry "C/C(=C\C(=O)OCCCCCCCCC(=O)O)C[C@@H]1OC[C@H](C[C@@H]2O[C@H]2[C@@H](C)[C@H](C)O)[C@@H](O)[C@H]1O"
28

Recorded values, source paper PMC4861432.
